Target: Bifunctional dihydrofolate reductase-thymidylate synthase (Toxoplasma gondii)
Sequence (Q07422 whole entry): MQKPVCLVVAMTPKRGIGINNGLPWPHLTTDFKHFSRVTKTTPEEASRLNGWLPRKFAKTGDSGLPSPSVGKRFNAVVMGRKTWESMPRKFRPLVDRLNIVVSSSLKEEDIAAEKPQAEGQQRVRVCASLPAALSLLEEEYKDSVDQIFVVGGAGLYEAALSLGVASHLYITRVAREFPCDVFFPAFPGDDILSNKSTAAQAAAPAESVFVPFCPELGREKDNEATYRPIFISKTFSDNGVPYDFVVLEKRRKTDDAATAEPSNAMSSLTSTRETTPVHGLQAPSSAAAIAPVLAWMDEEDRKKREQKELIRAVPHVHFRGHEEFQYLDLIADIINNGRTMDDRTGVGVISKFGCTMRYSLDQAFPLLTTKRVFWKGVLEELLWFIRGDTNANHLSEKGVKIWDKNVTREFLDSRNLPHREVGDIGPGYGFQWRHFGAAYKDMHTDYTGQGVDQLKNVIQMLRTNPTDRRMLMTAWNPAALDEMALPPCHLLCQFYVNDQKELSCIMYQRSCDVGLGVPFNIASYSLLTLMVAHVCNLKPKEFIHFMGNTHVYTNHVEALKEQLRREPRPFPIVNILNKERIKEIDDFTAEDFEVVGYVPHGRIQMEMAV
Assay: Inhibition of Toxoplasma gondii Dihydrofolate reductase
pIC50: −log10 of the molar value.
property.label: pIC50

smi | test.system | endpoint.result
CCc1sc2nc(N)[nH]c(=O)c2c1Sc1ccc(C(=O)N[C@@H](CCC(=O)O)C(=O)O)cc1 | Bifunctional dihydrofolate reductase-thymidylate synthase (Toxoplasma gondii) | 8.70
CCc1sc2nc(N)[nH]c(=O)c2c1Sc1ccc([N+](=O)[O-])cc1 | Bifunctional dihydrofolate reductase-thymidylate synthase (Toxoplasma gondii) | 8.10
COc1ccc(CCCCCCC(=O)O)cc1Cc1cnc2nc(N)nc(N)c2c1OC | Bifunctional dihydrofolate reductase-thymidylate synthase (Toxoplasma gondii) | 8.52
CCc1sc2nc(N)[nH]c(=O)c2c1Sc1ccc2ccccc2c1 | Bifunctional dihydrofolate reductase-thymidylate synthase (Toxoplasma gondii) | 8.10
COc1ccc(C#Cc2cccc(C(=O)O)c2)cc1Cc1cnc2nc(N)nc(N)c2c1OC | Bifunctional dihydrofolate reductase-thymidylate synthase (Toxoplasma gondii) | 8.30
CCc1sc2nc(N)[nH]c(=O)c2c1Sc1ccc(Br)cc1 | Bifunctional dihydrofolate reductase-thymidylate synthase (Toxoplasma gondii) | 8.00
